- ASSAYED SYSTEM: unphosphorylated c-KIT kinase (uKIT, Seq. ID no. 2) (Homo sapiens, UniProt P10721)
- Construct: uKit with N-terminal GST fusion used for
- Sequence (P10721 with tags, fused parts or gaps): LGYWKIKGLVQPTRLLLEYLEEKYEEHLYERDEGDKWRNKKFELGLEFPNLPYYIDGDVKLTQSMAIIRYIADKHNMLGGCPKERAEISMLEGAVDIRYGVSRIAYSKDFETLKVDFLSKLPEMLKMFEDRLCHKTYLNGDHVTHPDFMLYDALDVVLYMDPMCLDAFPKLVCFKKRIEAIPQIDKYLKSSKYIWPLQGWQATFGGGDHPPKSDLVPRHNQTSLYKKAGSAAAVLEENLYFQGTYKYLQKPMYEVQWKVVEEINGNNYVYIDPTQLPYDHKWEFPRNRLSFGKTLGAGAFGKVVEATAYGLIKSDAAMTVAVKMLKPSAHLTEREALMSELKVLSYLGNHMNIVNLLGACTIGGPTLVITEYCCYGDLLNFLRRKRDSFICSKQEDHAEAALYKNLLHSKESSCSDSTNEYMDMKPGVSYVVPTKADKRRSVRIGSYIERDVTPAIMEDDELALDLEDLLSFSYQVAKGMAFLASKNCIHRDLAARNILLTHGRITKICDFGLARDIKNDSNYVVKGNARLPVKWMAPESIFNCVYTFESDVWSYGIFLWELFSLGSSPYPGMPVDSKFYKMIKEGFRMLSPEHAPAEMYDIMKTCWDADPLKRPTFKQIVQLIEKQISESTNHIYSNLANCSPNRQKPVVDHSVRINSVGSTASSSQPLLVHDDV
- EXPERIMENTAL PROTOCOL: uKit kinase assay (pyruvate kinase/lactate dehydrogenase coupled)
- CONDITIONS: ATP 2000 μM
ENDPOINT LABEL: IC50

Below are worked cases with known answers.
MOLECULE | IC50
COC(C)(C)C(=O)NC(=O)Nc1ccc(Oc2ccnc(NC(=O)C3CCN(C)CC3)c2)cn1 [Example 40] | > 1 µM
COC(C)(C)C(=O)NC(=O)Nc1ccc(Oc2ccnc(NC(C)=O)c2)cn1 [Example 26] | > 1 µM
CN(C)C1CC(C(=O)Nc2cc(Oc3ccc(NC(=O)NC(=O)C(C)(C)C)nc3)ccn2)C1 (centres unmarked) [Example 61] | > 1 µM
CC(=O)Nc1cc(Oc2ccc(NC(=O)NC(=O)C3CCOCC3)nc2)ccn1 [Example 5] | 0.1 to 1 µM

The record that follows has no IC50 shown yet.
Record CC(=O)Nc1cc(Oc2ccc(NC(=O)NC(=O)C3CCOC3)nc2)ccn1 (centres unmarked) [Example 22] has unphosphorylated c-KIT kinase (uKIT, Seq. ID no. 2) (Homo sapiens, UniProt P10721) IC50 equal to > 1 µM
